For each entry below, report its pKi value.
# target of assay: T1, Human EphA2 (Ecto), C-terminal polyHis (Human, UniProt P29317 24-537)
# T1 construct: extracellular domain; R&D systems 3035-A2 or in-house
# T1 sequence (P29317 24-537): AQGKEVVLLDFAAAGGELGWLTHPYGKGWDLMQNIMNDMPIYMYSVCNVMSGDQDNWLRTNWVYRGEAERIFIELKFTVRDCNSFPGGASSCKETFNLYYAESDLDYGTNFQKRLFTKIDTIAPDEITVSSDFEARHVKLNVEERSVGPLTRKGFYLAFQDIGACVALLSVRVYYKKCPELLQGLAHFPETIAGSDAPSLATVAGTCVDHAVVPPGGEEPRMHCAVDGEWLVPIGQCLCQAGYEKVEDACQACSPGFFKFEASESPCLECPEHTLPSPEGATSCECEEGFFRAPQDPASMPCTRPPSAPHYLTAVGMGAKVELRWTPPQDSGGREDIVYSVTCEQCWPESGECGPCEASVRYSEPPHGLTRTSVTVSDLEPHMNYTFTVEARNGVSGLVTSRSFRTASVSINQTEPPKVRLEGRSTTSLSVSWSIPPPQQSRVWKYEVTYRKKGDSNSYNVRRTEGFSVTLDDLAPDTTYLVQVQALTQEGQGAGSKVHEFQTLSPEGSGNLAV
# method description: FP competition vs Reference Compound C
*1 amine or outer side, *2 acyl side, *3 side chain or, on linkers, in order; H or OH if unused. Bridges are numbered along the chain shown (N, C = ends). Where no end group is shown, it is not given here. TATA = O=C(CC[*:1])N1CN(C(=O)CC[*:2])CN(C(=O)CC[*:3])C1
Conceptually, pKi converts a concentration in mol/L into minus its log10.

Lab book: pKi of Ac-CPLVNPLCLHPGWSCRGQ (linker 1-8-15 via TATA; not fully specified (C-terminus); printed as Ac-CPLVNPLCLHPGWSCRGQ) [Compound 88] noted as 8.79

Item: ACGFMGLEPCELVCA (linker 2-10-14 via TATA; not fully specified (C-terminus)) [Compound 44] | pKi: 6.90

pKi reported for this binder ACPLVNPLCLTPGWTCTNT (linker 2-9-16 via TATA; not fully specified (C-terminus)) [Compound 94] : 7.88

The binder identified as ACPLVNPLCLHPGWTCLHG (N-terminal (β-Ala)-Sar10; TATA scaffold on the 3 Cys) [Compound 75] registered its pKi at 8.61

Reported pKi for ESRCSPDARCAYMNVCA (linker 4-10-16 via TATA) [Compound 20] was 7.24

Recorded pKi (binder ACVPDRRCAFRDVCLTG (linker 2-8-14 via TATA; not fully specified (C-terminus)) [Compound 28] ): 5.77

Record summary for GSGCKPDSRCAYMNVCA (linker 4-10-16 via TATA; not fully specified (C-terminus)) [Compound 22] : reported pKi = 7.20

# pKi of ACPLVNPLCNLPGWTCA (linker 2-9-16 via TATA; not fully specified (C-terminus)) [Compound 56] = 6.74

For reference, reported pKi for AXDCPLVNPLCLHPGWTC (N-terminal (β-Ala)-Sar10; HArg; TATA scaffold on the 3 Cys, also called Compound 67) [BCY6014] stands at 8.07

For record HSGCRPDPRCAYMNVCA (linker 4-10-16 via TATA) [Compound 21] the listed pKi is 7.21

Note to self: pKi recorded for CPLVNPLCLHPGWSCXGQ (not fully specified; N-terminal Ac; HArg; C-terminal -Sar6-(D-K); TATA scaffold on the 3 Cys) [Compound 92] was 7.98
